// cross-study collection: Ki for D(4) dopamine receptor (Homo sapiens, UniProt P21917)
# target of assay: D(4) dopamine receptor (Homo sapiens, UniProt P21917)
# Sequence (P21917 whole entry): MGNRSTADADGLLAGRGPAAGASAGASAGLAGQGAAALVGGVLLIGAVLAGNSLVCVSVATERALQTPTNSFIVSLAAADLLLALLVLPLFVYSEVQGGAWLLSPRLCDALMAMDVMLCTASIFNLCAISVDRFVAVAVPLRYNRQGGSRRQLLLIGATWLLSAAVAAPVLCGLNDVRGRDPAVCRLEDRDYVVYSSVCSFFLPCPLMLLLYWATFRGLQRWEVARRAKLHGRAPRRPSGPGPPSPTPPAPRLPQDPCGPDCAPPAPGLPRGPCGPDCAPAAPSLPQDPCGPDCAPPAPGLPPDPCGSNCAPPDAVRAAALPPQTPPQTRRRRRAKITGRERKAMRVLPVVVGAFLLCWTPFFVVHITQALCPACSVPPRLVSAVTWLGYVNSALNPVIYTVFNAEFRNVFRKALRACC
Answers are plain numbers, in nM.

Would you be so kind as to report Ki for each listed record?
1. CCCc1cn(CCCCCCCCn2cc(CCCOc3ccc(CN4CCN(c5ccccc5OC)CC4)cc3OC)nn2)nn1
2. COc1ccccc1N1CCN(CCCNC(=O)Nc2cccc(-c3ccccc3)c2)CC1
3. Cc1cc(-c2ccccc2)n(C2CCN(Cc3ccccc3)CC2)n1

[14, 7.2, 140]

====

// cross-study collection: pKi for D(4) dopamine receptor (Homo sapiens, UniProt P21917)
# target of assay: D(4) dopamine receptor (Homo sapiens, UniProt P21917)
# Sequence (P21917 whole entry): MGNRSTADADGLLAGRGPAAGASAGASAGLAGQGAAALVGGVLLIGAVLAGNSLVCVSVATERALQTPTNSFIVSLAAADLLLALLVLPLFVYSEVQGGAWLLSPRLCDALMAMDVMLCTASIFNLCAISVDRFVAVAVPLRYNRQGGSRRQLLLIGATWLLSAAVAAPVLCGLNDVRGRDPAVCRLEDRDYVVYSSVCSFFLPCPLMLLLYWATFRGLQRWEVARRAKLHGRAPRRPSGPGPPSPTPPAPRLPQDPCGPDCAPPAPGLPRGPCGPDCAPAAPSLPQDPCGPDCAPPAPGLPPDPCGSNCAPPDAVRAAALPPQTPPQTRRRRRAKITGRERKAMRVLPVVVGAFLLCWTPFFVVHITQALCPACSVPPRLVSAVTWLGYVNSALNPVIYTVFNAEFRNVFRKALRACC
Numbers only, as −log10 of the molar value.

[
  {
    "compound": "CCCCC1CCN(CCCN2C(=O)CCc3ccccc32)CC1",
    "pKi": 9.01
  },
  {
    "compound": "COc1cc2ccccc2cc1C(=O)OCC1CCN(Cc2ccccc2)C1 (configuration not stated)",
    "pKi": 7.70
  },
  {
    "compound": "O=C(NC1CCN(Cc2ccc(C(F)(F)F)cc2)CC1)c1ccc2ccccc2c1",
    "pKi": 7.08
  },
  {
    "compound": "c1ccc(CN2CCC(n3nccc3-c3ccccc3)CC2)cc1",
    "pKi": 7.82
  },
  {
    "compound": "CCc1cccc(N2CCN(CCCCNC(=O)c3c(C)nc4sccn34)CC2)c1Cl",
    "pKi": 6.84
  }
]

Would you be so kind as to report pKi for each listed record?
1. COc1ccc(-c2cc(CCCCN3CCN(c4ccccc4)CC3)on2)cc1OC
2. COc1cccc(C(=O)CCCN2CCN(c3ccc(Cl)cc3)CC2)c1
3. c1ccc(C(c2ccccc2)N2CCN(CCCCc3cc(-c4cccs4)no3)CC2)cc1
4. COc1cccc(CN2CCC(NC(=O)c3cccc4ccccc34)CC2)c1
5. COc1ccc2[nH]c(C(=O)NCCC(O)CN3CCN(c4ccccc4OC)CC3)cc2c1 (configuration not stated)
6. Cc1ccc(CN2CCN(CC(=O)N3c4ccccc4C[C@H]3C)CC2)cc1F

[6.11, 8.40, 5.67, 6.77, 5.82, 8.70]

====

# target of assay: D(4) dopamine receptor (Homo sapiens, UniProt P21917)
# Sequence (P21917 whole entry): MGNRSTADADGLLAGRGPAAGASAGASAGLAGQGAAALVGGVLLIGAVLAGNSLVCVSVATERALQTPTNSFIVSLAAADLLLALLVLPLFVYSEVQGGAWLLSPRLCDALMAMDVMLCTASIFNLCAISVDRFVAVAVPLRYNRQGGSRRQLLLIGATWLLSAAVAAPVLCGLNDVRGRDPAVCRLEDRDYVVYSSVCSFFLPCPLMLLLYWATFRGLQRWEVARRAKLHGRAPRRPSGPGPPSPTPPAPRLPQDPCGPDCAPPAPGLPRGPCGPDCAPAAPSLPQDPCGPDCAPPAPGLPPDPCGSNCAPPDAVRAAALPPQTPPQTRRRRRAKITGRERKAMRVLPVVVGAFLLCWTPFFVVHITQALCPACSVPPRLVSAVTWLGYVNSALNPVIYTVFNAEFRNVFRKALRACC
// cross-study collection: pKi for D(4) dopamine receptor (Homo sapiens, UniProt P21917)
One number for each entry, as −log10 of the molar value.

Look over these answered cases.
[
  {
    "compound": "COc1cc(NC(=O)C2CC2)c(Cl)cc1C(=O)N[C@H]1CCN(C2CCCCC2)C1",
    "target of assay": "D(4) dopamine receptor (Homo sapiens, UniProt P21917)",
    "assay value": 8.68
  },
  {
    "compound": "COc1ccc(C2NCCc3c2[nH]c2ccc(Cl)cc32)c(O)c1 (stereo not given)",
    "target of assay": "D(4) dopamine receptor (Homo sapiens, UniProt P21917)",
    "assay value": 6.22
  },
  {
    "compound": "C#Cc1ccc2cc(C(=O)NCCCCN3CCN(c4ccccc4OC)CC3)sc2c1",
    "target of assay": "D(4) dopamine receptor (Homo sapiens, UniProt P21917)",
    "assay value": 6.82
  }
]

Would you be so kind as to report pKi for each listed record?
1. COc1ccccc1N1CCN(CCN(C(=O)C23CCC(CF)(CC2)CC3)c2ccccn2)CC1
2. CN1CCC(c2cc(-c3ccc(Cl)cc3)[nH]n2)CC1
3. CCCC1CCN(CCCN2C(=O)CCc3ccccc32)CC1

1. 7.08
2. 5.92
3. 8.28

Would you be so kind as to report pKi for each listed record?
1. COc1ccccc1N1CCN(Cc2cn3cc(C)cc(N4CCOCC4)c3n2)CC1
2. c1ccc(OCCCNCCOc2ccccc2)cc1
3. COc1ccccc1N1CCN(CCN(C(=O)C23C4C5C2C2C3C4C52CF)c2ccccn2)CC1 (stereo not given)
4. C1=C(/C=C/c2ccccc2)CCN(CCc2c[nH]c3ncccc23)C1
5. CCCN(CCC)[C@@H]1CCn2nccc2C1
6. COc1cccc(C(=O)NCc2ccccc2CN2CCc3cc(OC)c(O)cc3C2)c1
7. COc1ccc(CN2CCC[C@H](OCc3ccc(C)cc3)C2)cc1F

1. 8.64
2. 8.70
3. 7.15
4. 8.19
5. 4.77
6. 5.97
7. 6.62

Would you be so kind as to report pKi for each listed record?
1. COc1ccccc1N1CCN(Cc2cnc3cc(C)nc(C)n23)CC1
2. CCCN(CCCCn1cc(-c2ccc(-c3ccccc3)cc2)nn1)C1CC=C(C#Cc2ccccc2)CC1 (stereo not given)
3. CCOc1ccccc1N1CCN(Cc2cccs2)CC1
4. C#CC1=CC[C@H](N(CCC)CCCCNC(=O)c2cc3ccccc3s2)CC1

[7.18, 5.96, 8.41, 8.28]

Would you be so kind as to report pKi for each listed record?
1. c1ccc(-c2nc(CN3CCN(c4cccnc4)CC3)c[nH]2)cc1
2. CCOCCn1cc(COc2ccc(CN3CCN(c4ccccc4OC)CC3)cc2OC)nn1
3. COc1cc(CN2CCN(c3ccccc3OC)CC2)ccc1OCc1cn(CCCCCCCCn2cc(COc3ccc(CN4CCN(c5ccccc5OC)CC4)cc3OC)nn2)nn1
4. FC(F)(F)c1cccc(COC2CCN(Cc3ncc4ccccn34)CC2)c1
5. COc1ccc2c(c1)CCCN(C)CCCc1ccccc1C2
6. COc1cccc(NC(=O)CCN2CCN(c3ccc(Cl)cc3)CC2)c1
7. c1ccc(OC[C@@H]2CC[C@H]3CN(c4ccccc4)CCN3C2)cc1

[7.14, 8.08, 8.27, 6.68, 5.54, 7.38, 8.80]

Would you be so kind as to report pKi for each listed record?
1. CN1CCCc2ccccc2Cc2cc(O)ccc2CC1
2. O=c1[nH]c2cccc(N3CCN(Cc4ccccc4)CC3)c2[nH]1
3. COc1ccccc1N1CCN(CCCCCNC(=O)c2nnn(Cc3ccccc3)c2C)CC1
4. COc1cc2c(cc1O)CN(Cc1ccccc1CNC(=O)c1ccccc1Br)CC2
5. O=c1ccc2ccc(CN3CCN(c4ccc(F)cc4)CC3)cc2o1
6. CCCc1c(C(=O)NCCCCN2CCN(c3ccccc3OC)CC2)nnn1Cc1ccccc1Br

1: 5.43; 2: 7.84; 3: 6.80; 4: 6.06; 5: 7.23; 6: 7.12

Would you be so kind as to report pKi for each listed record?
1. Cc1c(-c2ccc(Cl)cc2)noc1C1CCN(CCc2ccccc2)CC1
2. O=C(/C=C(\O)c1ccc(Cl)cc1)C1CCN(Cc2ccccc2)CC1

8.60
7.92
